# Test system: KRAS-mutant PDC complex spheroid viability
# assay_procedure: Anticancer human tumor 186277-243-T-J2-PDC patient-derived colon adenocarcinoma cell line growth inhibition [KRAS2]
# conditions_used: second compound 3.16 µM; first compound 1 µM; stronger effect = lower value
reported_property: viability, T/C (%)

[[record]]
molecule = "CCNC(=O)CC1N=C(c2ccc(Cl)cc2)c2cc(OC)ccc2-n2c(C)nnc21 (stereo not drawn) + COc1cc2nc(C)nc(NC(C)c3cc(N)cc(C(F)(F)F)c3)c2cc1OC1CCOC1"
result_number = 33.3

[[record]]
molecule = "COC(=O)c1ccc2c(C(=Nc3ccc(N(C)C(=O)CN4CCN(C)CC4)cc3)c3ccccc3)c(O)[nH]c2c1 + CC1OCC2(CCN(c3cnc(Sc4ccnc(N)c4Cl)c(N)n3)CC2)C1N"
result_number = 29.4

[[record]]
molecule = "Cn1nccc1Nc1nccc(-c2cc3c(s2)C(C)(C)N(CCN2CCOCC2)C3=O)n1 + CC1OCC2(CCN(c3cnc(Sc4ccnc(N)c4Cl)c(N)n3)CC2)C1N"
result_number = 2.81


----------
# Tested on: KRAS-mutant PDC complex spheroid viability
# assay_procedure: Anticancer human tumor 186277-243-T-J2-PDC cell line growth inhibition [KRAS2]
# conditions_used: curve of first compound; second compound 3.16 µM
pIC50: −log10 of the molar value.
reported_property: pIC50

[[record]]
molecule = "CCN1CCN(Cc2ccc(Nc3ncc(F)c(-c4cc(F)c5nc(C)n(C(C)C)c5c4)n3)nc2)CC1 + CC1OCC2(CCN(c3cnc(Sc4ccnc(N)c4Cl)c(N)n3)CC2)C1N"
result = 6.49

[[record]]
molecule = "Cn1ncnc1[C@H]1c2n[nH]c(=O)c3cc(F)cc(c23)N[C@@H]1c1ccc(F)cc1 + C=CC(=O)N1CCN(c2nc(=O)n(-c3c(C)ccnc3C(C)C)c3nc(-c4c(O)cccc4F)c(F)cc23)C(C)C1"
result = "< 7.00"

[[record]]
molecule = "CCNC(=O)CC1N=C(c2ccc(Cl)cc2)c2cc(OC)ccc2-n2c(C)nnc21 (stereo unspecified) + COc1cc2nc(C)nc(NC(C)c3cc(N)cc(C(F)(F)F)c3)c2cc1OC1CCOC1"
result = 6.12

[[record]]
molecule = "CC1OCC2(CCN(c3cnc(Sc4ccnc(N)c4Cl)c(N)n3)CC2)C1N (stereo unspecified) + C=CC(=O)N1CCN(c2nc(=O)n(-c3c(C)ccnc3C(C)C)c3nc(-c4c(O)cccc4F)c(F)cc23)C(C)C1"
result = "< 5.00"

[[record]]
molecule = "CC1COCCN1c1cc(-c2ccnn2C)c2ccnc(-c3ccn[nH]3)c2n1 (stereo unspecified) + C=CC(=O)N1CCN(c2nc(OCC3CCCN3C)nc3c2CCN(c2cccc4cccc(C)c24)C3)CC1CC#N"
result = "> 8.00"

[[record]]
molecule = "COc1cc2nccc(Oc3ccc(NC(=O)C4(C(=O)Nc5ccc(F)cc5)CC4)cc3)c2cc1OC + CNCc1ccccc1-c1csc(C(C)Nc2nc(C)nc3cc(OC)c(OC)cc23)c1"
result = "> 7.50"


----------
# Tested on: KRAS-mutant PDC complex spheroid viability
# assay_procedure: Anticancer human tumor 186277-243-T-J2-PDC cell line growth inhibition [KRAS2]; active = viability on the fitted dose curve at most 10% of control; inactive = the rest
# conditions_used: second compound 1 µM; first compound 10 µM
Classes used: label 1 (active), label 0 (inactive)

[[record]]
molecule = "COc1cc(Nc2ncc3c(n2)-c2ccc(Cl)cc2C(c2c(F)cccc2OC)=NC3)ccc1C(=O)O + COc1cc2nc(C)nc(NC(C)c3cc(N)cc(C(F)(F)F)c3)c2cc1OC1CCOC1"
measured_target = "KRAS-mutant PDC complex spheroid viability"
group = "label 0"

[[record]]
molecule = "CCNC(=O)CC1N=C(c2ccc(Cl)cc2)c2cc(OC)ccc2-n2c(C)nnc21 (centres undefined) + C=CC(=O)N1CCN(c2nc(OCC3CCCN3C)nc3c2CCN(c2cccc4cccc(C)c24)C3)CC1CC#N"
measured_target = "KRAS-mutant PDC complex spheroid viability"
group = "label 0"

[[record]]
molecule = "CC1(C)CCC(CN2CCN(c3ccc(C(=O)NS(=O)(=O)c4ccc(NCC5CCOCC5)c([N+](=O)[O-])c4)c(Oc4cnc5[nH]ccc5c4)c3)CC2)=C(c2ccc(Cl)cc2)C1 + COc1cc2nc(C)nc(NC(C)c3cc(N)cc(C(F)(F)F)c3)c2cc1OC1CCOC1"
measured_target = "KRAS-mutant PDC complex spheroid viability"
group = "label 1"

[[record]]
molecule = "O=C(c1cc(Cc2n[nH]c(=O)c3ccccc23)ccc1F)N1CCN(C(=O)C2CC2)CC1 + COc1cc2nc(C)nc(NC(C)c3cc(N)cc(C(F)(F)F)c3)c2cc1OC1CCOC1"
measured_target = "KRAS-mutant PDC complex spheroid viability"
group = "label 0"

[[record]]
molecule = "CC1(C)CCC(CN2CCN(c3ccc(C(=O)NS(=O)(=O)c4ccc(NCC5CCOCC5)c([N+](=O)[O-])c4)c(Oc4cnc5[nH]ccc5c4)c3)CC2)=C(c2ccc(Cl)cc2)C1 + CNCc1ccccc1-c1csc(C(C)Nc2nc(C)nc3cc(OC)c(OC)cc23)c1"
measured_target = "KRAS-mutant PDC complex spheroid viability"
group = "label 1"

[[record]]
molecule = "CC1(C)CCC(CN2CCN(c3ccc(C(=O)NS(=O)(=O)c4ccc(NCC5CCOCC5)c([N+](=O)[O-])c4)c(Oc4cnc5[nH]ccc5c4)c3)CC2)=C(c2ccc(Cl)cc2)C1 + CC1OCC2(CCN(c3cnc(Sc4ccnc(N)c4Cl)c(N)n3)CC2)C1N"
measured_target = "KRAS-mutant PDC complex spheroid viability"
group = "label 1"

[[record]]
molecule = "CC1OCC2(CCN(c3cnc(Sc4ccnc(N)c4Cl)c(N)n3)CC2)C1N (centres undefined) + C=CC(=O)N1CCN(c2nc(=O)n(-c3c(C)ccnc3C(C)C)c3nc(-c4c(O)cccc4F)c(F)cc23)C(C)C1"
measured_target = "KRAS-mutant PDC complex spheroid viability"
group = "label 0"

[[record]]
molecule = "COc1cc(Nc2ncc3c(n2)-c2ccc(Cl)cc2C(c2c(F)cccc2OC)=NC3)ccc1C(=O)O + C=CC(=O)N1CCN(c2nc(=O)n(-c3c(C)ccnc3C(C)C)c3nc(-c4c(O)cccc4F)c(F)cc23)C(C)C1"
measured_target = "KRAS-mutant PDC complex spheroid viability"
group = "label 0"

[[record]]
molecule = "COc1cc2nccc(Oc3ccc(NC(=O)C4(C(=O)Nc5ccc(F)cc5)CC4)cc3)c2cc1OC + C=CC(=O)N1CCN(c2nc(=O)n(-c3c(C)ccnc3C(C)C)c3nc(-c4c(O)cccc4F)c(F)cc23)C(C)C1"
measured_target = "KRAS-mutant PDC complex spheroid viability"
group = "label 0"

